Target: T1, recombinant CD47-Fc (Sino Biologics) (human, UniProt Q08722 19-139)
T1 construct: Bought reagent; also called human CD47-Fc; not shown: Fc
Assay: competition ELISA: HIS-tagged SIRP α binding to plate-bound CD47-Fc, antibody titrated
MEASURED_METRIC: pIC50
// field semantics: pIC50 = negative decimal log of concentration (mol/L)

Consider the following illustrative entries.
Record anti-CD47 AlivaMab antibody 151 (antibody, IgG1, V domains shown, Chimeric AlivaMab Mouse mAb from hybridoma: human V, CH1 and upper hinge, mouse middle hinge, CH2 and CH3, human kappa light chain; also called clone 151; mAb 151) VH: QVQLQESGPGLVKPSETLSLTCTVSGGSISSYYWSWIRQPPGKGLEWIGYIYYSGSTNYNPSLKSRVTISVDTSKNQFSLKLSSVTAADTAVYYCARKRKYFDYWGQGTLVTVSS VL: DIQMTQSPSSLSASVGDRVTITCRASQGISNYLAWYQQKPGKVPKLLIYAASTLQSGVPSRFSGSGSGTDFTLTISSLQPEDVATYYCQKCNSAPFTFGPGTKVDIK . Reported pIC50: 8.70

Record anti-CD47 AlivaMab antibody 90 (antibody, IgG1, V domains shown, Chimeric AlivaMab Mouse mAb from hybridoma: human V, CH1 and upper hinge, mouse middle hinge, CH2 and CH3, human kappa light chain; also called clone 90; mAb 90) VH: QVQLQESGPGLVKPSETLSLTCTVSGGSINNYYWSWIRQPPGKGLEWIGYIYYSGSTNYHPSLKSRVTISVDTSKNQFSLKLTSVTAADTAVFYCARGRRALTAWGQGTLVTVSS VL: DIQVTQSPSFLSASVGDRVTITCRASQGISSYLAWYQQKPGKAPKLLIYAASTLQSGVPSRFSGSGSGTEFTLTISSLQPEDFATYYCQQLNSYPLTFGGGTKMEIK . Reported pIC50: 7.27

Now consider the entry below.
Record anti-CD47 AlivaMab antibody 143 (antibody, IgG1, V domains shown, Chimeric AlivaMab Mouse mAb from hybridoma: human V, CH1 and upper hinge, mouse middle hinge, CH2 and CH3, human kappa light chain; also called clone 143; mAb 143) VH: QVQLQESGPGLVKPSETLSLTCTVSGGSINNYYWSWIRQPPGKGLEWIGYIYYSGSTNYNPSLRSRVTISVDTSKNQFSLKLSSVAAADTAVYYCARQKGMDVWGQGTTVTVSS VL: DIQMTQSPSAMSASVGDRVTITCRASQGISNYLAWFQQKPGKVPKRLIYAASSLQSGVPSRFSGSGSGTEFTLTISSLQPEDFATYYCLQHNSYPPTFGQGTKVEIK . Reported pIC50: 7.02
